Each recorded value in this set is attributed to patent US20250115620A1.

experiment: in vitro; details: human, uninfected MT-4 cells
QUANTITY: CC50 at 5 days

Answered examples (2):
>>> print(df.to_string())
                                smiles_code        quantity  data_value
0  [2H]C([2H])([2H])OC1=NO[C@@]2(CC[C@H](C)N3C[C@H]2n2cc(C(=O)NCc4ccc(F)cc4F)c(=O)c(O)c2C3=O)C1  CC50 at 5 days     17.6 µM
1  COC1=NO[C@@]2(C=C[C@H](C)N3C[C@H]2n2cc(C(=O)NCc4ccc(F)c(Cl)c4F)c(=O)c(O)c2C3=O)C1  CC50 at 5 days     22.9 µM

Turning to the following molecule.
Query: CC50 at 5 days; subject: "C[C@H]1CC[C@]2(CC(=O)N(CCc3ccccc3)O2)[C@H]2CN1C(=O)c1c(O)c(=O)c(C(=O)NCc3c(F)cc(F)cc3F)cn12"
≥ 50 µM

---

# half-life per record follows
assay: Half life, PK in monkeys after intravenous infusion; type: in vivo; settings: cynomolgus, monkey, single-dose intravenous infusion for 30 minutes, plasma, read-out: Cyno half-life (converted)

# annotated cases, reported half-life shown
In [3]: df
Out[3]:
                                   compound   quantity  data_value
0  CC1=NO[C@@]2(CC[C@H](C)N3C[C@H]2n2cc(C(=O)NCc4ccc(F)cc4F)c(=O)c(O)c2C3=O)C1  half-life        29 h
1  C[C@H]1CCC[C@H]2CN1C(=O)c1c(O)c(=O)c(C(=O)NCc3ccc(F)cc3F)cn12 [Reference Compound D]  half-life         3 h

Please give the measured half-life for this compound: "COC1=NO[C@@]2(CC[C@H](C)N3C[C@H]2n2cc(C(=O)NCc4ccc(F)cc4F)c(=O)c(O)c2C3=O)C1"
12 h

Fill blank: measured half-life of the compound O=C(NCc1ccc(F)cc1F)c1cn2c(c(O)c1=O)C(=O)N1CCCC[C@H]2C1 [Reference Compound B] is ____.
5 h

Which half-life is listed for O=C(NCc1c(F)cc(F)cc1F)c1cn2c(c(O)c1=O)C(=O)N1CCCC[C@H]2C1 [Reference Compound A] ?
3 h

---

experiment: in vitro; settings: human, uninfected MT-4 cells
Cut-off 30 µM on CC50 at 5 days: below means satisfied, at or above means not satisfied.

Answered cases to consult:
MOLECULE	LABEL
C[C@H]1CC[C@@]2(OC[C@@H](Cc3ccccc3)O2)[C@H]2CN1C(=O)c1c(O)c(=O)c(C(=O)NCc3c(F)cc(F)cc3F)cn12 (single isomer, unassigned) [169 (peak 1)]	not satisfied
C[C@H]1CC[C@@]2(CNC(=O)O2)[C@H]2CN1C(=O)c1c(O)c(=O)c(C(=O)NCc3c(F)cc(F)cc3F)cn12	not satisfied
CC1=NO[C@@]2(CC[C@H](C)N3C[C@H]2n2cc(C(=O)NCc4ccc(F)cc4F)c(=O)c(O)c2C3=O)C1	satisfied
C[C@H]1CC[C@@]2(COC(Cc3ccccc3)O2)[C@H]2CN1C(=O)c1c(O)c(=O)c(C(=O)NCc3c(F)cc(F)cc3F)cn12 (stereo partly drawn)	satisfied
C[C@H]1CC[C@@]2(COC(C)(C)O2)[C@H]2CN1C(=O)c1c(O)c(=O)c(C(=O)NCc3c(F)cc(F)cc3F)cn12	satisfied
C[C@H]1CC[C@]2(CC(=O)N(Cc3ccc4ccccc4c3)O2)[C@H]2CN1C(=O)c1c(O)c(=O)c(C(=O)NCc3c(F)cc(F)cc3F)cn12	not satisfied
C[C@H]1CC[C@]2(CC(=O)N(Cc3cnn(C)n3)O2)[C@H]2CN1C(=O)c1c(O)c(=O)c(C(=O)NCc3c(F)cc(F)cc3F)cn12	not satisfied
C[C@H]1CC[C@]2(CC(=O)N(Cc3cccnc3)O2)[C@H]2CN1C(=O)c1c(O)c(=O)c(C(=O)NCc3c(F)cc(F)cc3F)cn12	not satisfied

I'd appreciate it if you could check whether "C[C@H]1CC[C@]2(CC(=O)N(Cc3cccc(C(F)(F)F)c3)O2)[C@H]2CN1C(=O)c1c(O)c(=O)c(C(=O)NCc3c(F)cc(F)cc3F)cn12" has CC50 at 5 days smaller than 30 µM.
satisfied

Just wondering, is CC50 at 5 days of "CC1=NO[C@@]2(CC[C@H](C)N3C[C@H]2n2cc(C(=O)NCc4ncc(F)c(Cl)c4F)c(=O)c(O)c2C3=O)C1" below 30 µM?
satisfied

Is CC50 at 5 days of "C[C@H]1CC[C@]2(CC(=O)N(Cc3ccc(Br)cc3)O2)[C@H]2CN1C(=O)c1c(O)c(=O)c(C(=O)NCc3c(F)cc(F)cc3F)cn12" strictly below 30 µM?
satisfied

Would you kindly verify if CC50 at 5 days of "C[C@H]1CC[C@]2(CC(=O)N(Cc3ccc(Cl)cc3)O2)[C@H]2CN1C(=O)c1c(O)c(=O)c(C(=O)NCc3c(F)cc(F)cc3F)cn12" is strictly less than 30 µM?
satisfied

I'd appreciate it if you could check whether "C[C@H]1CC[C@]2(CC(C(C)(F)F)=NO2)[C@H]2CN1C(=O)c1c(O)c(=O)c(C(=O)NCc3c(F)cc(F)cc3F)cn12" has CC50 at 5 days smaller than 30 µM.
not satisfied

# strict comparison: is reported CC50 at 5 days < 30 µM? input = "C[C@H]1CC[C@]2(CC(c3ccccc3)=NO2)[C@H]2CN1C(=O)c1c(O)c(=O)c(C(=O)NCc3ccc(F)cc3F)cn12"
satisfied

---

assay: in vitro; conditions: human
QUANTITY: CC50 (µM)
Record the value in µM, omitting the unit from your answer.

Take a look at these entries with their results.
In [3]: df
Out[3]:
                                   compound  quantity  unit_annotation  data_value
0  CC1=NOC2(CC[C@H](C)N3C[C@H]2n2cc(C(=O)NCc4ccc(F)cc4F)c(=O)c(O)c2C3=O)N1N(C)C (stereo partly shown) [Example 95]      CC50               µM        24.1
1  C[C@H]1CC[C@]2(CC(Cc3ccccc3)=NO2)[C@H]2CN1C(=O)c1c(O)c(=O)c(C(=O)NCc3ccc(F)cc3F)cn12 [Example 12]      CC50               µM        23.5

CC50 for CC1=NO[C@@]2(CC[C@H](C)N3C[C@H]2n2cc(C(=O)NCc4c(F)cc(F)cc4F)c(=O)c(O)c2C3=O)S1 [Example 146] ?
16.9

---

# maps each entry to its EC50
tested on: pLAI reporter virus; assay: microbe, parasite or virus in culture; type: cell-based, HIV; details: Human immunodeficiency virus 1, MT4, 72 h, read-out: RLUC CCM EC50
A number alone suffices; assume nM.

Example molecules with recorded EC50:
>>> print(df.to_string())
                                   molecule  quantity  data_value
0  CC1=NO[C@@]2(CC[C@H](C)N3C[C@H]2n2cc(C(=O)NCc4c(F)cc(F)cc4F)c(=O)c(O)c2C3=O)[C@H]1O [Example 31]      EC50         0.3
1  C[C@H]1CC[C@]2(CC(CCF)=NO2)[C@H]2CN1C(=O)c1c(O)c(=O)c(C(=O)NCc3c(F)cc(F)cc3F)cn12 [Example 69]      EC50         0.2
2  C[C@H]1CC[C@]2(CC(=O)N(Cc3ccc4scnc4c3)O2)[C@H]2CN1C(=O)c1c(O)c(=O)c(C(=O)NCc3c(F)cc(F)cc3F)cn12 [Example 113]      EC50         0.1
3  CC1=NO[C@@]2(CC[C@H](C)N3C[C@H]2n2cc(C(=O)NCc4ccc(F)cc4F)c(=O)c(O)c2C3=O)[C@@H]1O [Example 30]      EC50         0.5
4  CC1=N[C@]2(CC[C@H](C)N3C[C@H]2n2cc(C(=O)NCc4ccc(F)cc4F)c(=O)c(O)c2C3=O)ON1C [Example 149b]      EC50         0.4

Please find the next molecule below.
Quick one: EC50 for C[C@H]1CCC2(OCCCO2)[C@H]2CN1C(=O)c1c(O)c(=O)c(C(=O)NCc3c(F)cc(F)cc3F)cn12 [Example 128] ?
0.2

---

experiment: in vitro; conditions: human, uninfected MT-4 cells
QUANTITY: CC50 at 5 days (µM)
Report the figure in µM without appending any unit label.

                                smiles_code        quantity  data_value
0  C[C@H]1CC[C@@]2(CO2)[C@H]2CN1C(=O)c1c(O)c(=O)c(C(=O)NCc3c(F)cc(F)cc3F)cn12  CC50 at 5 days         4.6

Dear colleague, I am looking for the recorded CC50 at 5 days of the following molecule: "CC1=NO[C@@]2(CC[C@H](C)N3C[C@H]2n2cc(-c4nnc(Cc5c(F)cc(F)cc5F)s4)c(=O)c(O)c2C3=O)C1"
14.2

What does the record list as CC50 at 5 days for "CC1=NO[C@]2(C1)C[C@H](F)[C@H](C)N1C[C@H]2n2cc(C(=O)NCc3ccc(F)cc3F)c(=O)c(O)c2C1=O" ?
25.8

Given the molecule "C[C@H]1CC[C@]2(COC(C)(C)O2)[C@H]2CN1C(=O)c1c(O)c(=O)c(C(=O)NCc3c(F)cc(F)cc3F)cn12" , what is its reported CC50 at 5 days?
42.4

CC50 at 5 days for "C[C@H]1CC[C@]2(CC(C(F)F)=NO2)[C@H]2CN1C(=O)c1c(O)c(=O)c(C(=O)NCc3c(F)cc(F)cc3F)cn12" ?
12.4
